# system.tested: human Adenosine A3 receptor (Homo sapiens (Human), UniProt P0DMS8)
# Sequence (P0DMS8 whole entry): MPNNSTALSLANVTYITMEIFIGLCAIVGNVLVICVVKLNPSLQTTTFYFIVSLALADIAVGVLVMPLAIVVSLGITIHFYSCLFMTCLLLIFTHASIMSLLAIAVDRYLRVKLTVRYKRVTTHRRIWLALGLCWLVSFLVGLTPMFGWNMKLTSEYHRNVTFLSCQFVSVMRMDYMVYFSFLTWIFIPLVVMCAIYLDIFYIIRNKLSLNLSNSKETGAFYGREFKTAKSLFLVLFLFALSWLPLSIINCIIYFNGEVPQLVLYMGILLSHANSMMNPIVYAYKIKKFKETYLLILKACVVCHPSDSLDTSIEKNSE
experimental.readout: Ki (nM)

(a) N#Cc1cccc(-c2nc(NC(=O)N3CC4(COC4)C3)sc2-c2ccc3ncoc3c2)c1
(b) N#Cc1cccc(-c2nc(NC(=O)N3CCOCC3)sc2-c2ccn3nccc3c2)c1
(c) Cc1cc(-c2sc(NC(=O)N3CC4(COC4)C3)nc2-c2cccc(C#N)c2)c2cc[nH]c2n1
QUERY: // ranking: key=Ki, reverse=True Order the labels as requested and list them.
RESULT: b, c, a

----------
Catalogue of IC50 values
# Tested on: human PBMCs
# experiment.summary: CD3/CD28 stimulated IL-2 release NECA reversal assay in human PBMCs
# Type: cell-based
# condition.parameters: PBMC, reversal of 1 uM NECA, 24 hours
Report as a plain number; the unit pM is understood.

QUERY: Tell me reported IC50 for "Cc1ncnc2ccc(-c3sc(NC(=O)N4CC5(CNCCO5)C4)nc3-c3cccc(C#N)c3)cc12" , tested with human PBMCs.
RESULT: 1800

----------
# system.tested: human Adenosine A1 receptor (Homo sapiens (Human), UniProt P30542)
# Sequence (P30542 whole entry): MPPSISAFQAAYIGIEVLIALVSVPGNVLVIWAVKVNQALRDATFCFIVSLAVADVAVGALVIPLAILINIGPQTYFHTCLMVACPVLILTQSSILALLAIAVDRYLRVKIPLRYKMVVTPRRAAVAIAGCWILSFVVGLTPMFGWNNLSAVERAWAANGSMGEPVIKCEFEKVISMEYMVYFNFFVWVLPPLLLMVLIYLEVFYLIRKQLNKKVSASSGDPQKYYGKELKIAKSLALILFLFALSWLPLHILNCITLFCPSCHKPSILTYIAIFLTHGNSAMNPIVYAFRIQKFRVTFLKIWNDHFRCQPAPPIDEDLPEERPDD
# experiment.summary: Adenosine receptor TR-FRET binding assay (A1)
# condition.parameters: inhibition of binding of 100 nM CA200645; CHO cell membranes; Ki from IC50 by Cheng and Prusoff
experimental.readout: Ki (nM)

// solved cases for Ki follow
Cc1ncnc2ccc(-c3sc(NC(=O)N4CCO[C@H](C(C)(C)O)C4)nc3-c3cccc(C#N)c3)cc12 (single isomer, unassigned) [Example 7.7b] | 9
Cc1ncnc2ccc(-c3sc(NC(=O)N4CCC5(CC4)CN(C)CCO5)nc3-c3cccc(C#N)c3)cc12 | 12

(A) Cc1cc(-c2sc(NC(=O)N3CC4(COC4)C3)nc2-c2cccc(C#N)c2)cc2cnn(C)c12
(B) Cc1ncnc2ccc(-c3sc(NC(=O)N4CCN(C5COC5)CC4)nc3-c3cccc(C#N)c3)cc12
(C) Cc1cc(-c2sc(NC(=O)N3CC4(COC4)C3)nc2-c2cccc(C#N)c2)c2[nH]ncc2n1
(D) N#Cc1cccc(-c2nc(NC(=O)N3CCOCC3)sc2-c2ccn3nccc3c2)c1
(E) Cc1ncnc2ccc(-c3sc(NC(=O)N4CCN(C(C)(C)C#N)CC4)nc3-c3cccc(C#N)c3)cc12
QUERY: Rank descending by Ki. Answer by naming the labels in the order asked.
RESULT: C, B, A, E, D
(C: 467 nM, B: 65 nM, A: 14 nM, E: 9 nM, D: 0.2 nM)

(P) Cc1ncnc2ccc(-c3sc(NC(=O)N4CCC5(CC4)CNCCO5)nc3-c3cccc(C#N)c3)cc12
(Q) Cn1ccc2c(-c3sc(NC(=O)N4CC5(COC5)C4)nc3-c3cccc(C#N)c3)ccnc21
(R) Cc1ncnc2c(C)cc(-c3sc(NC(=O)N4CC5(COC5)C4)nc3-c3cccc(C#N)c3)cc12
(S) Cc1ncnc2ccc(-c3sc(NC(=O)N4CC[C@](C)(C#N)C4)nc3-c3cccc(C#N)c3)cc12
QUERY: Please list these in order of increasing Ki. Thank you! Answer by writing out the labels in the requested order.
RESULT: S, Q, R, P

(a) Cc1cc(-c2sc(NC(=O)N3CC4(COC4)C3)nc2-c2cccc(C#N)c2)cc2[nH]ncc12
(b) N#Cc1cccc(-c2nc(NC(=O)N3CC4(COC4)C3)sc2-c2c[nH]c3ncccc23)c1
QUERY: Two entries are listed, a and b . Which one carries the higher Ki? Respond with the label that goes with your answer.
RESULT: a

(1) CCc1ncnc2ccc(-c3sc(NC(=O)N4CC5(COC5)C4)nc3-c3cccc(C#N)c3)cc12
(2) Cc1ncnc2ccc(-c3sc(NC(=O)N4CCO[C@H](C(C)(C)O)C4)nc3-c3cccc(C#N)c3)cc12 (single isomer, unassigned) [Example 7.7a]
QUERY: Choose between 1 and 2 : whose measured Ki value is numerically larger? Identify your selection by its label.
RESULT: 2
(2: 4 nM, 1: 2 nM)
